Ref: patent US20260242478A1

Biological target: T1, Anti-CD28 Fab (SEQ ID NOs: 696, 697)
T1 construct: In the phage ELISA the Fab was biotinylated and captured on neutravidin coated plates
T1 sequence (VH, as listed by the source, chain 1 of 2): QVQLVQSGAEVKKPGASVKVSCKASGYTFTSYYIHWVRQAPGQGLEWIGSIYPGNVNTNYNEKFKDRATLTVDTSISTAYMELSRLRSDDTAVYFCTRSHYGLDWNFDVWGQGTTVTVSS
T1 sequence (VL, as listed by the source, chain 2 of 2): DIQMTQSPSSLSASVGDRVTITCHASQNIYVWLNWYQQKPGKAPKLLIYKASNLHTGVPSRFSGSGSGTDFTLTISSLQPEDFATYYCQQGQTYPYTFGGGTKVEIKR
Test: phage binding ELISA; biotinylated anti-CD28 Fab on neutravidin plate, bound phage detected with anti-M13 HRP
Where no end group is shown, it is not given here.
The following binders are listed with their measured Anti-CD28 Fab (SEQ ID NOs: 696, 697) signal values.
// return just the number, without any unit appended

A selection of reference data follows.
MCAAGAMYAWPTCL (peptide, not shown: large carriers, cysteine pairing not given here; also: fused to phage pIII protein, pIII and linker not given here, Clonal phage of the Peptide-92 optimisation library, tested as crude phage supernatant) [Phage-1475]: 1.75
TCAAGATYPWPSCL (peptide, not shown: large carriers, Clonal phage of the Peptide-92 optimisation library, tested as crude phage supernatant) [Phage-1485]: 1.73

We now examine a further binder.
Value of Anti-CD28 Fab (SEQ ID NOs: 696, 697) signal reported for the binder TCAAGAHYAWPECF (peptide, not shown: large carriers, Clonal phage of the Peptide-92 optimisation library, tested as crude phage supernatant) [Phage-1487] is 1.72
